Source: patent US20230271943A1

- System: H7N9 strain
- procedureSummary: microbe, parasite or virus in culture
- Type: cell-based
- conditionDetails: Influenza A virus, H7N9, MDCK, 120 h, read-out: Anti-H7N9 EC50
experimentalReadout: EC50 (nM)
Reply numerically in nM, unit not repeated.

The compound listed as CCn1c(CO)nn(-c2cc3c(C(C)C)nn(-c4c(F)cccc4Cl)c(=O)c3cc2F)c1=O has a reported EC50 of 14

----------
- assaySystem: recombinant human DHODH (Homo sapiens)
- Sequence (Q02127 whole entry): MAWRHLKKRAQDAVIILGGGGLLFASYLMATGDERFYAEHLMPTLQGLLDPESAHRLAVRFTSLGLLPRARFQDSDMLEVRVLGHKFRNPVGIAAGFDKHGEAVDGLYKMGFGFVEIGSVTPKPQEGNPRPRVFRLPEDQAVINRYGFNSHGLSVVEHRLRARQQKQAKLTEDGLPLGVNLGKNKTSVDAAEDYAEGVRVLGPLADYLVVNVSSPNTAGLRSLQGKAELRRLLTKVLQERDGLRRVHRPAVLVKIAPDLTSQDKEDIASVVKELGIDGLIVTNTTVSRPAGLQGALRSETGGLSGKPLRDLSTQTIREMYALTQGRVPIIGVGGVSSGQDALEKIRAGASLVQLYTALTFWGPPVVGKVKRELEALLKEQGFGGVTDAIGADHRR
- procedureSummary: Biochemical enzymatic assay (DCIP bleaching)
- conditionDetails: DCIP absorbance 600 nm, 60 min RT
Reported pIC50 values are given for each entry in this list.
pIC50 here: minus log base 10 of the concentration, concentration in moles per litre.

Use these answered entries as a reference point.
The compound listed as CCn1c(CO)nn(-c2cc3c(cc2F)c(=O)c(-c2c(F)cccc2Cl)nn3C(C)C)c1=O has a reported pIC50 of 7.01

The compound listed as CCn1c(CO)nn(-c2cc3c(C(C)C)nn(-c4c(F)cccc4Cl)c(=O)c3cc2F)c1=O has a reported pIC50 of 7.96

Continuing:
The compound listed as CCn1c(CO)nn(-c2cc3c(cc2F)c(=O)c(-c2c(F)cccc2Cl)nn3C(C)C(F)(F)F)c1=O (stereo not drawn) has a reported pIC50 of 6.67

----------
- procedureSummary: in vitro
- conditionDetails: dog
experimentalReadout: CC50

The compound listed as CCC(CC)O[C@@H]1C=C(C(=O)O)C[C@H](N)[C@H]1NC(C)=O [Oseltamivir acid, reference compound] has a reported CC50 of > 100 nM

The compound listed as CCn1c(CO)nn(-c2cc3c(C(C)C)nn(-c4c(F)cccc4Cl)c(=O)c3cc2F)c1=O [Compound 4] has a reported CC50 of > 1000 nM

The compound listed as CCn1c(CO)nn(-c2cc3c(cc2F)c(=O)c(-c2c(F)cccc2Cl)nn3C(C)C)c1=O [Compound 2] has a reported CC50 of > 1000 nM

The compound listed as O=C1c2c(O)c(=O)ccn2N([C@@H]2c3ccccc3SCc3c2ccc(F)c3F)[C@@H]2COCCN12 [Baloxavir, reference compound] has a reported CC50 of 18 nM
